# conditionContext: siRNA; note: test system not given here
HELM strings list units from the 5' end as sugar, base in round brackets, then linkage (d deoxyribose, r ribose, m 2'-O-methyl, p phosphodiester). Strings are as the collection lists them, not checked against the first reports. ss, as = sense and antisense strand; [s4r] = 4'-thioribose; [fl2r] = 2'-fluoro
# target mRNA knockdown listing for each entry below
Your answer should be a plain number; it is taken to be in %.

Record excerpt, results attached:
{"substance": "RNA1{r(U)p.r(A)p.r(A)p.r(G)p.r(A)p.r(U)p.r(G)p.r(U)p.r(U)p.r(C)p.r(A)p.r(U)p.r(C)p.r(G)p.r(A)p.r(G)p.r(U)p.r(C)p.r(C)p.d(T)p.d(T)}|RNA2{r(G)p.r(G)p.r(A)p.r(C)p.r(U)p.r(C)p.r(G)p.r(A)p.r(U)p.r(G)p.r(A)p.r(A)p.r(C)p.r(A)p.r(U)p.r(C)p.r(U)p.r(U)p.r(A)p.d(T)p.d(T)}$$$RNA1{StrandType:ss}|RNA2{StrandType:as}$", "target mRNA knockdown, %": 0}
{"substance": "RNA1{[s4r](A)p.[s4r](A)p.[s4r](A)p.[s4r](C)p.r(A)p.r(U)p.r(G)p.r(C)p.r(A)p.r(G)p.r(A)p.r(A)p.r(A)p.r(A)p.r(U)p.[s4r](G)p.[s4r](C)p.[s4r](C)p.[s4r](U)p.r(T)p.r(T)}|RNA2{r(C)p.r(A)p.r(G)p.r(C)p.r(A)p.r(U)p.r(U)p.r(U)p.r(U)p.r(C)p.r(U)p.r(G)p.r(C)p.r(A)p.r(U)p.r(G)p.r(U)p.[s4r](U)p.[s4r](U)p.r(T)p.r(T)}$$$RNA1{StrandType:ss}|RNA2{StrandType:as}$", "target mRNA knockdown, %": 87.7}

Next:
For reference, reported target mRNA knockdown for RNA1{r(G)p.r(G)p.r(C)p.r(U)p.[fl2r](U)p.r(A)p.r(G)p.r(U)p.r(C)p.r(A)p.r(C)p.r(U)p.r(C)p.r(C)p.r(U)p.r(C)p.r(U)p.r(U)p.r(C)p.r(T)p.r(T)}|RNA2{r(G)p.r(A)p.r(A)p.r(G)p.r(A)p.r(G)p.r(G)p.r(A)p.r(G)p.r(U)p.r(G)p.r(A)p.r(C)p.[fl2r](U)p.r(A)p.r(A)p.r(G)p.r(C)p.r(C)p.r(T)p.r(T)}$$$RNA1{StrandType:ss}|RNA2{StrandType:as}$ stands at 69

###

# target mRNA knockdown listing for each entry below
# conditionContext: siRNA
HELM strings list units from the 5' end as sugar, base in round brackets, then linkage (d deoxyribose, r ribose, m 2'-O-methyl, p phosphodiester). Strings are as the collection lists them, not checked against the first reports. ss, as = sense and antisense strand; [fl2r] = 2'-fluoro
Your answer should be a plain number; it is taken to be in %.

{"substance": "RNA1{m(A)p.m(A)p.m(G)p.r(G)p.r(A)p.r(G)p.r(A)p.r(U)p.r(C)p.r(A)p.r(A)p.r(C)p.r(A)p.r(U)p.r(U)p.r(U)p.m(U)p.m(C)p.m(A)p.r(T)p.r(T)}|RNA2{m(U)p.m(G)p.m(A)p.r(A)p.r(A)p.r(A)p.r(U)p.r(G)p.r(U)p.r(U)p.r(G)p.r(A)p.r(U)p.r(C)p.r(U)p.r(C)p.m(C)p.m(U)p.m(U)p.r(T)p.r(T)}$$$RNA1{StrandType:ss}|RNA2{StrandType:as}$", "quantity": "target mRNA knockdown", "experimentalValue": 76}

Next:
For reference, reported target mRNA knockdown for RNA1{[fl2r](G)p.r(C)p.[fl2r](U)p.r(U)p.[fl2r](C)p.r(G)p.[fl2r](G)p.r(A)p.[fl2r](A)p.r(A)p.[fl2r](C)p.r(U)p.[fl2r](G)p.r(G)p.[fl2r](A)p.r(C)p.[fl2r](A)p.r(U)p.[fl2r](C)p.r(T)p.r(T)}|RNA2{[fl2r](G)p.r(A)p.r(U)p.[fl2r](G)p.r(U)p.r(C)p.r(C)p.r(A)p.[fl2r](G)p.r(U)p.r(U)p.r(U)p.r(C)p.r(C)p.[fl2r](G)p.r(A)p.r(A)p.[fl2r](G)p.r(C)p.r(T)p.r(T)}$$$RNA1{StrandType:ss}|RNA2{StrandType:as}$ stands at 29
